Read-out: Tissue Factor, F3 (gene 2152)
Assay: BSK_LPS_TissueFactor: BioMAP Diversity Plus: LPS Assay for Tissue Factor Biomarker Activity (AID 2283084)
Run conditions: primary human HUVEC with PBMC; actives raise or lower the signal
Active and inactive are the calls of the source. Rule for the calls: active = hit-call score of the fitted dose curve at least 0.9, where 1 is the maximum; inactive = score below 0.9.
Observed property: outcome

Some solved entries appear below for comparison.
compound=CCNC(=O)NC(=O)C(C#N)=NOC observed_value=inactive
compound=Nc1cnn(-c2ccccc2)c(=O)c1Cl observed_value=inactive
compound="CC(C)C1(C)N=C(c2ncccc2C(=O)O)NC1=O (stereo unspecified)" observed_value=inactive
compound=COC(=O)NC(=S)Nc1ccccc1NC(=S)NC(=O)OC observed_value=inactive
compound=COC(=O)c1c(C(F)F)nc(C(F)(F)F)c(C2=NCCS2)c1CC(C)C observed_value=inactive

Continue with the compound presented below.
For the compound shown here, CCOC(=O)C(C)OC(=O)c1cc(Oc2ccc(C(F)(F)F)cc2Cl)ccc1[N+](=O)[O-] (stereo unspecified) , give the reported outcome.
inactive

From: PubChem BioAssay (EPA / NIEHS)
